- Test system: Escherichia coli TOP10
- Protocol: shrunken log2 fold change of peptide-encoding DNA abundance (4.5 h post-induction vs induction); higher = less antimicrobial activity (less host growth inhibition)
- Reported Conditions: time post-induction: 4.5 h; library: site-saturation at positions 5, 18, 19, 20
Value Type: shrunken log2 fold change
Reply briefly: the number, and no unit.

Worked examples follow.
# Biopolymer Sequence, Tested Target, Measured Result
data = [
    ("RRIRWRPPRLPRPRPRPHTWPRP", "Escherichia coli TOP10", -0.134),
    ("RRIRHRPPRLPRPRPRPCVCPRP", "Escherichia coli TOP10", 0.0978),
]

// query Fill in: shrunken log2 fold change of "RRIRTRPPRLPRPRPRPRYYPRP" is ___
// result -0.112

// query Further, for "RRIRIRPPRLPRPRPRPKFRPRP" ?
// result -0.0682

// query Further, for "RRIRERPPRLPRPRPRPDTQPRP" ?
// result -0.116

// query Further, for "RRIRHRPPRLPRPRPRPHTMPRP" ?
// result -0.0685

// query Further, for "RRIRGRPPRLPRPRPRPSWLPRP" ?
// result 0.519

// query Further, for "RRIRTRPPRLPRPRPRPINPPRP" ?
// result -0.0274

// query Further, for "RRIRLRPPRLPRPRPRPMVKPRP" ?
// result -0.147

// query Further, for "RRIRHRPPRLPRPRPRPKVSPRP" ?
// result -0.112

// query Further, for "RRIRCRPPRLPRPRPRPPTSPRP" ?
// result 0.428

// query Further, for "RRIRHRPPRLPRPRPRPMHMPRP" ?
// result -0.0761

// query Further, for "RRIRYRPPRLPRPRPRPGYEPRP" ?
// result 0.026

// query Further, for "RRIRCRPPRLPRPRPRPALRPRP" ?
// result 0.457

// query Further, for "RRIRPRPPRLPRPRPRPHGMPRP" ?
// result -0.531

----------
- System: Escherichia coli TOP10
- Protocol: shrunken log2 fold change of peptide-encoding DNA abundance (4.5 h post-induction vs induction); higher = less antimicrobial activity (less host growth inhibition)
- Reported Conditions: time post-induction: 4.5 h; library: site-saturation at positions 5, 18, 19, 20
Value Type: shrunken log2 fold change
Reply briefly: the number, and no unit.

Worked examples follow.
# Biopolymer Sequence, Value Type, Measured Result
rows = [
    ("RRIRQRPPRLPRPRPRPMYDPRP", "shrunken log2 fold change", -0.0385),
    ("RRIRSRPPRLPRPRPRPVWWPRP", "shrunken log2 fold change", 0.131),
    ("RRIRARPPRLPRPRPRPKGMPRP", "shrunken log2 fold change", 0.4),
    ("RRIRCRPPRLPRPRPRPYWMPRP", "shrunken log2 fold change", -1.07),
]

// query Fill in: shrunken log2 fold change of "RRIRWRPPRLPRPRPRPPEIPRP" is ___
// result -0.0659

// query Further, for "RRIRCRPPRLPRPRPRPMFMPRP" ?
// result -0.246

----------
- Test system: Escherichia coli TOP10;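 further: peptides expressed intracellularly from a pBAD plasmid library in pooled LB shake-flask culture, induced with 0.3% L-arabinose, DNA abundance read by NGS, three biological replicates, DESeq2 with apeglm shrinkage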
- Protocol: shrunken log2 fold change of peptide-encoding DNA abundance (4.5 h post-induction vs induction); higher = less antimicrobial activity (less host growth inhibition)
- Reported Conditions: time post-induction: 4.5 h; library: site-saturation at positions 5, 18, 19, 20
Value Type: shrunken log2 fold change
Reply briefly: the number, and no unit.

Worked examples follow.
# Biopolymer Sequence, shrunken log2 fold change
measured = [
    ("RRIRRRPPRLPRPRPRPENWPRP", 0.153),
    ("RRIRVRPPRLPRPRPRPKHPPRP", 0.28),
    ("RRIRSRPPRLPRPRPRPCTPPRP", -0.312),
    ("RRIRGRPPRLPRPRPRPHGHPRP", 0.382),
    ("RRIRTRPPRLPRPRPRPEFRPRP", -0.0543),
]

// query Fill in: shrunken log2 fold change of "RRIRKRPPRLPRPRPRPLPAPRP" is ___
// result 1.13

// query Further, for "RRIRKRPPRLPRPRPRPRFDPRP" ?
// result 0.19

// query Further, for "RRIRERPPRLPRPRPRPVHAPRP" ?
// result -0.0762
